The following compounds are listed with their measured activity, negative = inhibition values.
Assay: qHTS profiling for inhibitors of Plasmodium falciparum proliferation (AID 504749); note: nearly all actives have a fitted effect of over 60% in size;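 for activity, negative = inhibition: 0% = DMSO vehicle and full inhibition = artemisinin control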
Settings: P. falciparum in erythrocytes, SYBR Green DNA, 72 h; at 28.7 µM (top of the series); parasite line A
Inconclusive results are not listed.
quantityName: activity, negative = inhibition (%)

> print(dat)
                                    compound  measured
 1    FC(F)OC(F)(F)C(F)Cl (stereo not given)      10.8
 2               c1csc(C2(N3CCCCC3)CCCCC2)c1     -2.88
 3         Clc1ccc(C2(Cn3cncn3)OCCO2)c(Cl)c1      8.04
 4                            S=C(S)N1CCNCC1      5.54
 5                         O=C(O)C(Cl)(Cl)Cl      7.18
 6  C=CCN1CC[C@]23c4c5ccc(O)c4O[C@H]2[C@@H](O)C=C[C@H]3[C@H]1C5     -14.2
 7           C#CC(C)(O)CC (stereo not given)      3.88
 8  OC(c1ccccc1)(c1ccccc1)C1CN2CCC1CC2 (stereo not given)      2.79
 9                             ClC(Cl)(Cl)Cl      12.6
10               ClCC1CO1 (stereo not given)      2.63
11                                    O=CC=O      6.37
12  CNC1(c2ccccc2Cl)CCCCC1=O (stereo not given)      12.4
13                                    CCON=O     -4.19
14      CCN(CC)C(=O)/C(Cl)=C(\C)OP(=O)(OC)OC     -6.34
15  COC([CH2][Hg])CNC(=O)c1ccccc1OCC(=O)O (stereo not given)      6.16

---

System: HEK293T
Assay: qHTS assay to identify novel small-molecules to repurpose for Merkel cell carcinoma treatment (AID 1296009); note: nearly all actives have a fitted effect of over 60% in size
Conditions: MCC and control cell lines, CellTiter-Glo viability, 72 h; at 44.8 µM (top of the series) unless noted
Records with an inconclusive call do not appear. Active and inactive are the calls of the source. Calls come from the whole dose curve; as a rule, active = well fitted inhibition curve with a large enough effect; inconclusive = small, poorly fitted or top-dose-only effect; inactive = flat fitted curve, though single readings scatter.

compound	targetEntity	outcome
C=CC(C)(C)c1[nH]c2cccc3c2c1C[C@@H]1[C@@H]3[C@@H](OC(C)=O)[C@H](C)CN1C	HEK293T	inactive
C=C(C)[C@H]1O[C@H]2CC[C@@]3(C)[C@@](O)(CC[C@H]4[C@@H]5OC(C)(C)[C@H]6C[C@@H]7C(=C)Cc8c(Cl)cc9[nH]c(c5c9c8[C@@]76O)[C@@]43C)[C@]23O[C@@H]3[C@H]1O	HEK293T	inactive [at 17.4 µM]
CC(N)Cc1c[nH]c2ccccc12 (stereo unspecified)	HEK293T	inactive
CN1[C@H]2C[C@H](OC(=O)[C@H](CO)c3ccccc3)C[C@@H]1[C@@H](O)C2	HEK293T	inactive
N#CC(OC1OC(COC2OC(CO)C(O)C(O)C2O)C(O)C(O)C1O)c1ccccc1 (stereo unspecified)	HEK293T	inactive [at 17.4 µM]
CC(CCc1ccc(O)cc1)O[C@@H]1O[C@H](CO[C@H]2OC[C@](O)(CO)[C@H]2O)[C@@H](O)[C@H](O)[C@H]1O (stereo partly specified)	HEK293T	inactive [at 17.4 µM]
CC1=C2C[C@H]3[C@@H](CC=C4C[C@@H](O)CC[C@@]43C)[C@@H]2CC[C@]12O[C@@H]1C[C@H](C)CN[C@H]1[C@H]2C	HEK293T	inactive
Clc1ccc(OCC2=NCCN2)cc1Cl	HEK293T	inactive
CC(C)=C1CC[C@]23CO[C@H](C2)[C@@](O)(C(=O)O)CCC13 (stereo partly specified)	HEK293T	inactive
CC(=O)O[C@H]1C[C@@H](OC(C)=O)C(C)(C)C2C[C@@H](O)[C@]3(C)C(CC[C@@]4(C)[C@H](C5=CC(=O)OC5O)C[C@H]5O[C@]543)[C@]21C (stereo partly specified)	HEK293T	inactive [at 17.4 µM]
COCC1OC(=O)c2coc3c2C1(C)C1=C(C3=O)C2CCC(=O)C2(C)CC1O (stereo unspecified)	HEK293T	inactive
CCC(C)(OC(C)=O)C(=O)O[C@H]1[C@H](OC(C)=O)C[C@@H]2[C@@](C)([C@@H]3C[C@H]4C=CO[C@H]4O3)[C@H](C)C[C@H](OC(C)=O)[C@@]2(COC(C)=O)[C@@]12CO2 (stereo partly specified)	HEK293T	inactive [at 17.4 µM]
CCc1c(C(=O)C(N)=O)c2c(OCC(=O)OC)cccc2n1Cc1ccccc1	HEK293T	inactive
CCCN1CCO[C@H]2c3cc(O)ccc3OC[C@@H]21	HEK293T	inactive
Cn1ncnc1COc1nn2c(-c3c(F)cccc3F)nnc2cc1C1CCC1	HEK293T	inactive

---

Experiment: qHTS for differential inhibitors of proliferation of Plasmodium falciparum line W2 (AID 1883);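 note: parasites grown with compound for 72 h before lysis and staining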
Conditions: Plasmodium falciparum W2 proliferation inhibition; series mostly up to 28.7 µM
Inconclusive results are not listed. The source made the active and inactive calls. Calls come from the whole dose curve; as a rule, active = well fitted curve in the direction sought with a large enough effect; inconclusive = small, poorly fitted or top-dose-only effect, or another doubt; inactive = no such curve, though single readings can be large or run the other way.
Outcome codes: true (1) = active, false (0) = inactive

> print(dat)
                                    molecule        cat
 1  NCC(CP(=O)(O)O)c1ccc(Cl)cc1 (stereo unspecified)  false (0)
 2        C/C(O)=C(\C#N)C(=O)Nc1cc(Br)ccc1Br  false (0)
 3                                 CC(=O)NBr  false (0)
 4  Oc1ccc2c3c1O[C@H]1c4oc5ccccc5c4C[C@@]4(O)C(C2)N(CC2CC2)CCC314 (stereo partly specified)   true (1)
 5  CCN(CC)c1ncnc2c1ncn2[C@@H]1O[C@H](COP(=O)(O)OP(=O)(O)C(Br)(Br)P(=O)(O)O)[C@@H](O)[C@H]1O  false (0)
 6  COc1ccc2c(c1)C13CCCCC1C(C2)N(C)CC3 (stereo unspecified)   true (1)
 7  CCCn1c(C)c(C(=O)c2ccc3ccccc3c2)c2ccccc21   true (1)
 8                       CN(N=O)c1cc(O)ccc1O  false (0)
 9  C[C@]12Cc3cn4c(nc3C=C1CCC1C2CC[C@@]2(C)[C@H]1CC[C@@]2(O)C#N)nc1ccccc14 (stereo partly specified)   true (1)
10              N#CC(C#N)=Cc1cc(O)c(O)c(O)c1   true (1)
11  Cc1o[nH]c(=O)c1CC(N)C(=O)O (stereo unspecified)  false (0)

---

Biological target: Nucleoprotein (Lymphocytic choriomeningitis virus (strain Armstrong)) (UniProt P09992)
Sequence (P09992 whole entry, looked up): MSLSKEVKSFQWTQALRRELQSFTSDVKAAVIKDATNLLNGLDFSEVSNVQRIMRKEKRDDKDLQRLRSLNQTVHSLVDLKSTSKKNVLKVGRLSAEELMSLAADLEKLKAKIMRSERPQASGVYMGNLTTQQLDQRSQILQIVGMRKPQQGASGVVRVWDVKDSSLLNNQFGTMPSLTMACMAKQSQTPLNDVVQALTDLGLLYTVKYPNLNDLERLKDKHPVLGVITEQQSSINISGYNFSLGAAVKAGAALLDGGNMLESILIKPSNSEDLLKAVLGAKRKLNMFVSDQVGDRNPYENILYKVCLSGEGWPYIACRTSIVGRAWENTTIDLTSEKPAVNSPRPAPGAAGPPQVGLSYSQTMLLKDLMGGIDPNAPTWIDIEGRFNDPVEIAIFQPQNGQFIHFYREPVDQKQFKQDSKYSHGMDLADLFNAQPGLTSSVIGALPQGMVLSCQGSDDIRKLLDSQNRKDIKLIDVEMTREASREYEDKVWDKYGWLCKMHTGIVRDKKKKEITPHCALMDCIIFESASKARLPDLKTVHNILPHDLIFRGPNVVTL
Assay: qHTS for Inhibitors of the Functional Ribonucleoprotein Complex (vRNP) of Lymphocytic Choriomeningitis Arenaviruses (LCMV): LCMV Primary Screen - GLuc reporter signal (AID 1347086); note: % is set by controls: 0 for no effect and ±100 for the full control effect; nearly all actives have a fitted effect of over 70% in size
Conditions: LCMV minigenome vRNP cell assay, Gaussia luciferase reporter; series mostly up to 57.5 µM
Results filed as inconclusive are left out. The source made the active and inactive calls. Calls follow the shape of the full dose curve.
quantityName: outcome

> print(dat)
                                   molecule  measured
1  NC(=O)COc1c(F)cc(SCCNS(=O)(=O)c2ccccc2)cc1F  inactive
2  Cc1o[nH]c(=O)c1CC(N)C(=O)O (stereo unspecified)  inactive
3      O=[N+]([O-])c1ccc2nc(N3CCNCC3)ccc2c1  inactive
4         N[C@@]1(C(=O)O)CC[C@@H](C(=O)O)C1  inactive
5  O=[N+]([O-])c1cc(O)c(O)c([N+](=O)[O-])c1  inactive
6  C[N+]1(C)C2CCC1CC(OC(=O)c1c[nH]c3ccccc13)C2 (stereo unspecified)  inactive

---

System: CP194
Experiment: qHTS profiling for inhibitors of Plasmodium falciparum proliferation (AID 504749); note: nearly all actives have a fitted effect of over 60% in size
Details: P. falciparum in erythrocytes, SYBR Green DNA, 72 h; series mostly up to 28.7 µM
Inconclusive results are not listed. Calls of active or inactive are those of the source. Calls follow the shape of the dose curve; as a rule, active = well fitted inhibition curve with a large enough effect; inconclusive = small, poorly fitted or top-dose-only effect; inactive = flat fitted curve, though single readings scatter.
Outcome codes: yes (1) = active, no (0) = inactive

molecule	cat
O=C1CN=C(c2ccccc2)c2cc(Cl)ccc2N1CC1CC1	no (0)
O=C(O)C(Cl)(Cl)Cl	no (0)
Clc1ccccc1Cl	no (0)
O=C/C=C/c1ccccc1	no (0)
C[C@H]1CC[C@@H]2[C@@H](C)[C@H]3[C@H](C[C@H]4[C@@H]5CC=C6CC(O[C@@H]7O[C@H](CO)[C@H](O)[C@H](O[C@@H]8O[C@H](CO)[C@@H](O)[C@H](O)[C@H]8O)[C@H]7O[C@H]7O[C@@H](C)[C@H](O)[C@@H](O)[C@H]7O)CC[C@]6(C)[C@H]5CC[C@]34C)N2C1 (stereo partly drawn)	no (0)
COC([CH2][Hg])CNC(=O)c1ccccc1OCC(=O)O (stereo not drawn)	no (0)
O=[N+]([O-])c1ccc(F)c([N+](=O)[O-])c1	no (0)
COCC(C)N(C(=O)CCl)c1c(C)csc1C (stereo not drawn)	no (0)
C/C(=C\c1csc(C)n1)[C@@H]1C[C@@H]2O[C@]2(C)CCC[C@H](C)[C@H](O)[C@@H](C)C(=O)C(C)(C)[C@@H](O)CC(=O)O1	yes (1)
O=C1CC[C@@]2(O)C3Cc4ccc(O)c5c4C2(CCN3CC2CC2)[C@H]1O5 (stereo partly drawn)	no (0)
Clc1ccc(Cl)cc1	no (0)
C=CCN(C1=NCCN1)c1c(Cl)cccc1Cl	no (0)
O=c1[nH]c(=O)n(Cl)c(=O)n1Cl	no (0)
C=CCN1CC[C@]23c4c5ccc(O)c4O[C@H]2[C@@H](O)C=C[C@H]3[C@H]1C5	no (0)
c1ccc2sc(SNC3CCCCC3)nc2c1	no (0)
CCC(N)Cc1c[nH]c2ccccc12 (stereo not drawn)	no (0)
O=C(NC(=O)c1c(F)cccc1F)Nc1ccc(Cl)c(Oc2ncc(C(F)(F)F)cc2Cl)c1	no (0)
CCNC(C)Cc1cccc(C(F)(F)F)c1 (stereo not drawn)	no (0)
NCC(O)c1cccc(O)c1 (stereo not drawn)	no (0)
CCC1(c2ccccc2)C(=O)NC(=O)N(C(=O)c2ccccc2)C1=O (stereo not drawn)	no (0)
CC[N+](C)(CC)CCOC(=O)C(O)(c1ccccc1)c1ccccc1	no (0)
c1csc(C2(N3CCCCC3)CCCCC2)c1	no (0)
ClCC1CO1 (stereo not drawn)	no (0)
